# EXPERIMENT_SUMMARY: Solubility determination of vrx and vrx-co-crystals in water
# Assay type: physicochemical
# CONDITION_CONTEXT: thermodynamic from solid, 37° C., equilibration time 24 h, 20 mg solid in 5.0 ml, HPLC, value refers to Voriconazole
METRIC_NAME: solubility at 24 h (µg/mL)
Give the quantity in µg/mL, number only.

Any idea what solubility at 24 h was measured for C[C@@H](c1ncncc1F)[C@](O)(Cn1cncn1)c1ccc(F)cc1F [Voriconazole free drug, reference compound] ?
1010

// data source = patent US20150087657A1
